# target or test system: T1, recombinant human PSMA (prostate-specific membrane antigen), biotin-tagged (human, UniProt Q04609 44-750, biotin tag (site not stated))
# T1 construct: also called biotin-tagged PSMA; biotin-labelled PSMA
# T1 sequence (Q04609 44-750 limits assumed): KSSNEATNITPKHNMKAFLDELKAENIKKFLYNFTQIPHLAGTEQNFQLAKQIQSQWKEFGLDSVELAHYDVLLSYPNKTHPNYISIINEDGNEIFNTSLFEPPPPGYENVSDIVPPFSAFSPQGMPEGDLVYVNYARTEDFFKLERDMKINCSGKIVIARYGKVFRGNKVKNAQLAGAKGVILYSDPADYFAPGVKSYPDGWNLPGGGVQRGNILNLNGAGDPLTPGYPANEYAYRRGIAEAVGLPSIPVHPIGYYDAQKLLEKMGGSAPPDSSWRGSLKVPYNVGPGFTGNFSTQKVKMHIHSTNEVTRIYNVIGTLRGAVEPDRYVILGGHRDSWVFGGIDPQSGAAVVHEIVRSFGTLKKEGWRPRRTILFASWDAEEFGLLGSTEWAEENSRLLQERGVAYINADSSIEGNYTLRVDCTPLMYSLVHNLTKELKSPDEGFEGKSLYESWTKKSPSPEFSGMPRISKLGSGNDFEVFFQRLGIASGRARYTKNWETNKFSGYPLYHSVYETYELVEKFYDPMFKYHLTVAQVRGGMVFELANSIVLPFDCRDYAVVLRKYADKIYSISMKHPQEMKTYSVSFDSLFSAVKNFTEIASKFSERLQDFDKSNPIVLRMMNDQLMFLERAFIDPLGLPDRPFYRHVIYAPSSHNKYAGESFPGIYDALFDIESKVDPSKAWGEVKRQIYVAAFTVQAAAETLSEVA
# experimental details: PSMA ELISA on plates coated with recombinant PSMA, two-fold dilution series, goat anti-human-HRP and TMB
readout: EC50 (read off the curve)

Sample answers from the record:
binder: h5D3 variant LVg2 (antibody, human IgG1, V domains shown, Full-length human IgG1 kappa variant of h5D3 (antibody 6)) VH: EVQLVESGGGLVQPGGSLRLSCAASGYAFNTSWMNWVRQAPGKGLEWISRIYPGDGDTNYNGKFKGKATISADKSKNTLYLQMNSLRAEDTAVYYCARGEWYLYYFDYWGQGTLVTVSS VL: DIQMTQSPSSLSASVGDRVTITCSASQGIENFLTWYQQKPGKALKLLIYYTSSLHSGVPSRFSGSGSGTDYTLTISSLQPEDFATYYCQQYSNLPFTFGQGTKVEIK
EC50 (read off the curve): ~0.4 nM

binder: 6-5D3-IgG1 (antibody, V domains shown, N-glycosylation at VH N30, also called h5D3; humanized 5D3) VH: EVQLVESGGGLVQPGGSLRLSCAASGYAFNTSWMNWVRQAPGKGLEWISRIYPGDGDTNYNGKFKGKATISADKSKNTLYLQMNSLRAEDTAVYYCARGEWYLYYFDYWGQGTLVTVSS VL: DIQMTQSPSSLSASVGDRVTITCSASQGINNFLTWYQQKPGKALKLLIYYTSSLHSGVPSRFSGSGSGTDYTLTISSLQPEDFATYYCQQYSNLPFTFGQGTKVEIK
EC50 (read off the curve): ~0.4 nM

Q: Can you look up the measured EC50 (read off the curve) of h5D3 variant HVg2 (antibody, human IgG1, V domains shown, Full-length human IgG1 kappa variant of h5D3 (antibody 6)) VH: EVQLVESGGGLVQPGGSLRLSCAASGYAFQTSWMNWVRQAPGKGLEWISRIYPGDADTNYNAKFKGKATISADKSKNTLYLQMNSLRAEDTAVYYCARGEWYLYYFDYWGQGTLVTVSS VL: DIQMTQSPSSLSASVGDRVTITCSASQGINNFLTWYQQKPGKALKLLIYYTSSLHSGVPSRFSGSGSGTDYTLTISSLQPEDFATYYCQQYSNLPFTFGQGTKVEIK for me?
Ans: ~0.4 nM

Q: Would you kindly repeat that for h5D3 variant HVg3 (antibody, human IgG1, V domains shown, Full-length human IgG1 kappa variant of h5D3 (antibody 6)) VH: EVQLVESGGGLVQPGGSLRLSCAASGYAFQTSWMNWVRQAPGKGLEWISRIYPGEGETNYNAKFKGKATISADKSKNTLYLQMNSLRAEDTAVYYCARGEWYLYYFDYWGQGTLVTVSS VL: DIQMTQSPSSLSASVGDRVTITCSASQGINNFLTWYQQKPGKALKLLIYYTSSLHSGVPSRFSGSGSGTDYTLTISSLQPEDFATYYCQQYSNLPFTFGQGTKVEIK ?
Ans: ~0.9 nM
